Cited source: the supplement of paper PMC9732359

For each record, write down the corresponding protein stability index.
Test: protein stability index of a GFP-peptide fusion (yeast GPS) (PSI 1-4); higher = more stable; sorted into four equal gates, so the index is relative within each strain
Conditions: doa10∆

Example entries and their recorded answers appear below.
> print(dat)
                     ordered.residues   val
 1           VTKITDMLLHKYYIVSS [SRB8]  1.45
 2           CLNTQRGDSTETSSFGS [RRI1]  3.61
 3           LLENFANFKTSKKYQLA [RRP6]  2.09
 4           KPLGLDRYGNRYFWLDH [ITC1]  2.77
 5           DQNNKKMVGLRGFNNQI [SNF2]  3.35
 6  NEAPPKTSLADWQKEDG [YMR153W/NUP53]  2.74
 7           SVDKKVDSGEERNEQER [SWI3]  3.53
 8           LDDDSIVNHEQDLPKIN [SRB4]   2.7
 9           DEGLLNMVSLRGRNDTL [GRR1]  2.55
10           EKPLILADYIVEVLLVN [NUT1]  1.91

Here are 4 sequences. What values of protein stability index were reported for them?
1. NKKIGKRPPEIMSTEAH [SIR4]
2. ETIIEADKSLPSSMATL [YJR042W/NUP85]
3. TKVLNMKPSEILSLIEE [SMC2]
4. TLDDLVTKWTNQLTESA [YJL041W/NSP1]

Ans.
1. 3.09
2. 2.75
3. 2.86
4. 2.76

----------
For each record, write down the corresponding protein stability index.
Assay: protein stability index of a GFP-peptide fusion (yeast GPS) (PSI 1-4); higher = more stable; sorted into four equal gates, so the index is relative within each strain
Details: ubr1∆
Give bare numbers.

> print(dat)
                     ordered.residues        property.measured   val
1           KNFENGPKKNVFYAPNV [RPC34]  protein stability index  3.14
2           GKEHIVAALVSLTEKFS [ECM29]  protein stability index  1.63
3   QKSVSLLSSESNIPTLI [YDL116W/NUP84]  protein stability index  2.67
4  GKTGLSNMILGSVELST [YML103C/NUP188]  protein stability index  2.33
5            HHYNPKTKKLNLSAFKI [BRR2]  protein stability index   2.4

Here are 2 sequences. What values of protein stability index were reported for them?
1. PWVVYLQILAMLLLNIF [YMR129W/POM152]
2. NLNAFVDFSKYNTNFNL [SRP72]

Ans.
[1.16, 2.17]

Here are 6 sequences. What values of protein stability index were reported for them?
1. NLQTFTHEQWSNIQRNV [SRP72]
2. FEIDDEHRIRVFFDKRI [RPS6A]
3. DMVMATVKKGKPELRKK [RPL23A]
4. NLSSNVNFTEIGGLIPQ [YCS4]
5. VSIKDSTGCVVGLSQPD [YMR129W/POM152]
6. QFTGFLLHEMTQTYMQM [GRR1]

Ans.
[2.93, 2.94, 3.22, 2.47, 2.28, 1.9]

Qu. Return reported protein stability index; argument: LKTADNRDRSFQLLEPL [PGD1]
Ans. 3.18
